- assayName: Retardation factor in ethyl acetate-pyridine-acetic acid-water at 5:5:1:3 ratio by TLC
- Type: physicochemical
- measurementConditions: buffer
*1 amine or outer side, *2 acyl side, *3 side chain or, on linkers, in order; H or OH if unused. Where a SMILES comes first, the peptide text is derived from it. [ ]: non-standard residue; d: D form. X1 = CCCCCCCCCCCCNCCC[C@@H](N[*:1])C(=O)[*:2]; pGlu = O=C1CC[C@@H](C(=O)O)N1
measurementLabel: Rf
Write the value as a bare number.

INSERT INTO measurements (compound, measurementlabel, readoutnumber) VALUES
  ('CCCCCCCCCCCCNCCC[C@@H](NC(=O)[C@H](Cc1ccc(O)cc1)NC(=O)[C@H](CO)NC(=O)[C@H](Cc1c[nH]c2ccccc12)NC(=O)[C@@H]1CCC(=O)N1)C(=O)N[C@@H](CC(C)C)C(=O)N[C@@H](CCCNC(=N)N)C(=O)N1CCC[C@H]1C(=O)NCC(N)=O ([pGlu]WSY[X1]LRPG-NH2)', 'Rf', 0.48);

Proceeding to the next compound to report its Rf.
Prompt: Read the entry CCNC(=O)[C@@H]1CCCN1C(=O)[C@H](CCCNC(=N)N)NC(=O)[C@H](CC(C)C)NC(=O)[C@@H](CCCN)NC(=O)[C@H](Cc1ccc(O)cc1)NC(=O)[C@H](CO)NC(=O)[C@H](Cc1c[nH]c2ccccc12)NC(=O)[C@H](Cc1cnc[nH]1)NC(=O)[C@@H]1CCC(=O)N1 and write its reported Rf.
Response: 0.69

Cited source: ChEMBL document CHEMBL3272080
